Target: Syk kinase (Homo sapiens, UniProt P43405)
Experiment: ELISA-based Syk kinase assay (phosphorylation of HS1 peptide substrate by isolated Syk kinase)
Details: IC50 of Syk kinase inhibition; 2 μM ATP, 2 μM peptide substrate
Consider the following compounds and their measured IC50 readings.

COc1ccc(-n2cc(C#N)c3nc(-c4cc(OC)c(OC)c(OC)c4)c(N)n32)cc1 [Compound 82] : 3 to 25 µM

Query: # lookup: IC50 of COc1cc(-c2[nH]c3c(C#N)cnn3c2Nc2ccc(N3CCOCC3)cc2)cc(OC)c1OC [Compound 25]
Reply: 0.51 to 2.99 µM

Query: Look at this compound and give its reported IC50. COc1cc(-c2[nH]c3c(C#N)cnn3c2Nc2ccc(OC(C)C)c(Cl)c2)cc(OC)c1OC [Compound 141]
Reply: 0.51 to 2.99 µM
